molecular target: HER2 S310F (Homo sapiens, UniProt P04626, S310F); assay: BaF3 cell proliferation assay (CellTiterGlo), HER2 S310F; conditions: Table A; BaF3 cells, 3 days
Sequence (P04626 23-1255 S310F): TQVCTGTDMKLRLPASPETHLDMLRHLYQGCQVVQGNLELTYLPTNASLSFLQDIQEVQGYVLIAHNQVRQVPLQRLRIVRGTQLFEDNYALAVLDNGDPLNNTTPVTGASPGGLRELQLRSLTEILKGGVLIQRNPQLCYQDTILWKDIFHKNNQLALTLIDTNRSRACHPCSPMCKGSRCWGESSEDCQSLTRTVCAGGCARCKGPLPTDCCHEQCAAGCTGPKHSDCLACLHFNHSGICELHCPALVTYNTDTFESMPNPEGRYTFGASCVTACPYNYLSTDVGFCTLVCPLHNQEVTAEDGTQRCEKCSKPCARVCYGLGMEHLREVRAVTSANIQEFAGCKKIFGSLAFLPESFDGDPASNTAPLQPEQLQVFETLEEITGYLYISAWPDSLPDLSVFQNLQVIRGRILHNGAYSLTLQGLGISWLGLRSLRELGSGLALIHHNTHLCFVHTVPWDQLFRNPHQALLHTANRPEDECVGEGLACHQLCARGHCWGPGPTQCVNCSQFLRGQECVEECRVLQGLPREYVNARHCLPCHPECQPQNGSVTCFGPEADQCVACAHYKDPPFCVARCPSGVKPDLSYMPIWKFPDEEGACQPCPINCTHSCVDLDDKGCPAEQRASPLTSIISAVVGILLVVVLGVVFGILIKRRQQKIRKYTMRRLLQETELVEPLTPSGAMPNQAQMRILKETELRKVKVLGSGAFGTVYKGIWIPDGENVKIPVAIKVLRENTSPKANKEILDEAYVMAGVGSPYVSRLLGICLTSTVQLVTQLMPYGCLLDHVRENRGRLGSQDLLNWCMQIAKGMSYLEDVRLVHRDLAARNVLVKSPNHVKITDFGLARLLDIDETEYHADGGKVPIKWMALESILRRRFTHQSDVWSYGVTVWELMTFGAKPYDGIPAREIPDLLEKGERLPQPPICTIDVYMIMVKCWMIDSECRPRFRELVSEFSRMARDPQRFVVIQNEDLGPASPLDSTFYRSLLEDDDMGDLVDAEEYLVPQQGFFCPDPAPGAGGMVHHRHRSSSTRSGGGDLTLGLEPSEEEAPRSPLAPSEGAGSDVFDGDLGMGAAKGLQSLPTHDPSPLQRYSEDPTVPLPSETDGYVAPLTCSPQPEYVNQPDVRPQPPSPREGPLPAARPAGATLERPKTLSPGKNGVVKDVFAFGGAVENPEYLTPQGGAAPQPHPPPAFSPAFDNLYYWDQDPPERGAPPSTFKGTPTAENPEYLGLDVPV
pIC50: −log10 of the molar value.

{"compound": "CN1C[C@H]2C[C@@]2(C#Cc2cc3ncnc(Nc4cccc(Cl)c4F)c3cc2NC(=O)/C=C/CN2C3COCC2C3)C1", "target of assay": "HER2 S310F (Homo sapiens, UniProt P04626, S310F)", "pIC50": "≥ 7.30"}
{"compound": "C=CC(=O)Nc1cc2c(Nc3cccc(Cl)c3F)ncnc2cc1C#CC12CCN(CC1)CC2", "target of assay": "HER2 S310F (Homo sapiens, UniProt P04626, S310F)", "pIC50": "6.30 to 7.00"}
{"compound": "C=CC(=O)Nc1cc2c(Nc3cccc(Cl)c3F)ncnc2cc1C#CC1(C)CCN(C)CC1", "target of assay": "HER2 S310F (Homo sapiens, UniProt P04626, S310F)", "pIC50": "6.30 to 7.00"}
{"compound": "CN1C[C@H]2C[C@@]2(C#Cc2cc3ncnc(Nc4cccc(Cl)c4F)c3cc2NC(=O)/C=C/CN2CCCC(C(=O)O)C2)C1 (stereo partly drawn)", "target of assay": "HER2 S310F (Homo sapiens, UniProt P04626, S310F)", "pIC50": "7.00 to 7.30"}
{"compound": "C=CC(=O)Nc1cc2c(Nc3cccc(Cl)c3F)ncnc2cc1C#CC1(C)CN(C)C2(COC2)C1 (stereo not drawn)", "target of assay": "HER2 S310F (Homo sapiens, UniProt P04626, S310F)", "pIC50": "< 6.30"}
{"compound": "C=CC(=O)Nc1cc2c(Nc3ccc(OCc4ccccn4)c(Cl)c3)ncnc2cc1C#CC1(C)CCCN(C)C1 (stereo not drawn)", "target of assay": "HER2 S310F (Homo sapiens, UniProt P04626, S310F)", "pIC50": "≥ 7.30"}
{"compound": "C=C(C)C(=O)Nc1cc2c(Nc3cccc(Cl)c3F)ncnc2cc1C#C[C@@]1(C)CCN(C)C1", "target of assay": "HER2 S310F (Homo sapiens, UniProt P04626, S310F)", "pIC50": "< 6.30"}
{"compound": "C=CC(=O)Nc1cc2c(Nc3cccc(Cl)c3F)ncnc2cc1C#C[C@@]1(C)CCN(C)C1", "target of assay": "HER2 S310F (Homo sapiens, UniProt P04626, S310F)", "pIC50": "7.00 to 7.30"}
{"compound": "C=CC(=O)Nc1cc2c(Nc3cccc(Cl)c3F)ncnc2cc1C#C[C@]1(F)CCN(C)C1", "target of assay": "HER2 S310F (Homo sapiens, UniProt P04626, S310F)", "pIC50": "6.30 to 7.00"}
{"compound": "C=CC(=O)Nc1cc2c(Nc3ccc(OCc4ccccn4)c(Cl)c3)ncnc2cc1C#C[C@]1(C)CCN(C)C1", "target of assay": "HER2 S310F (Homo sapiens, UniProt P04626, S310F)", "pIC50": "≥ 7.30"}
{"compound": "C=CC(=O)Nc1cc2c(Nc3ccc(OCc4ccccn4)c(Cl)c3)ncnc2cc1C#CC1(C)CCN(C)CC1", "target of assay": "HER2 S310F (Homo sapiens, UniProt P04626, S310F)", "pIC50": "≥ 7.30"}
{"compound": "COC/C=C/C(=O)Nc1cc2c(Nc3cccc(Cl)c3F)ncnc2cc1C#C[C@@]12C[C@@H]1CN(C)C2", "target of assay": "HER2 S310F (Homo sapiens, UniProt P04626, S310F)", "pIC50": "6.30 to 7.00"}
{"compound": "C=CC(=O)Nc1cc2c(Nc3ccc(OCc4cccc(F)c4)c(Cl)c3)ncnc2cc1C#C[C@@H]1[C@H]2CN(C)C[C@@H]12", "target of assay": "HER2 S310F (Homo sapiens, UniProt P04626, S310F)", "pIC50": "7.00 to 7.30"}
{"compound": "CN1C[C@H]2C[C@@]2(C#Cc2cc3ncnc(Nc4cccc(Cl)c4F)c3cc2NC(=O)C#CCN2CCOCC2)C1", "target of assay": "HER2 S310F (Homo sapiens, UniProt P04626, S310F)", "pIC50": "≥ 7.30"}
{"compound": "C=CC(=O)Nc1cc2c(Nc3cccc(Cl)c3F)ncnc2cc1C#C[C@@]1(F)CCN(C)C1", "target of assay": "HER2 S310F (Homo sapiens, UniProt P04626, S310F)", "pIC50": "6.30 to 7.00"}
